- assay: In vitro metabolic stability in human intestinal S9
- Assay type: in vitro ADME
- experimental-conditions: human, intestinal S9; 37°C, S9 1 mg/mL, compound 10 μM, NADPH regeneration system; read-out: Human intestinal S9 T1/2
readout-kind: half-life at 10 µM (min)
Answers are plain numbers, in min.

- CC(OC(=O)SCCO)[n+]1cnn(C[C@](O)(c2ccc(F)cc2F)[C@@H](C)c2ncncc2F)c1 (some centres unmarked): 10.8

Turning to the following compound.
For the compound CC(OC(=O)N(C)c1ncccc1CN)[n+]1cnn(C[C@](O)(c2ccc(F)cc2F)[C@@H](C)c2ncncc2F)c1 (some centres unmarked) , what half-life at 10 µM is on record?
43.2
